Data provenance: patent US8178538B2

# TEST TARGET: PDE10A2 (Homo sapiens)
# Construct: residues serine 449 to aspartate 789; His6 (H6) with thrombin cleavage site (N, cleaved yes)
# Sequence (Q9Y233 715-1055): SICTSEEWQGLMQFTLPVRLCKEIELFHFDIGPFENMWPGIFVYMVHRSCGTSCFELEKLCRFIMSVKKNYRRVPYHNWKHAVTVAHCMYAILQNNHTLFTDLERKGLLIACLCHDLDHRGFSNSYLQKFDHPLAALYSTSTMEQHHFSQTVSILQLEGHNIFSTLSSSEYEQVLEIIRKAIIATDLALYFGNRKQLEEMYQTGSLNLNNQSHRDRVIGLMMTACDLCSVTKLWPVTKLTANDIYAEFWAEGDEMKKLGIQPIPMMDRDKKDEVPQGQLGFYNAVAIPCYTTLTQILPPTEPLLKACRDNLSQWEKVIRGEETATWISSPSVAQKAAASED
# TEST SUMMARY: PDE10A2 inhibition, Scintillation Proximity Assay (SPA)
# EXPERIMENTAL CONTEXT: catalytic domain of human PDE10A2 (S449-D789), 0.25 nM enzyme, 50 nM cGMP + 50 nM [3H]-cGMP, 30 minutes at room temperature
pIC50: −log10 of the molar value.
Tag: satisfied if measured pIC50 is not below 7, not satisfied if it is.

Examples with answers:
>>> qualitative_label("O=c1ccn(-c2ccc3c(c2)OC(F)(F)O3)nc1-c1ccnn1-c1ccccc1F [Example 174]")
"not satisfied"
>>> qualitative_label("CC(C)c1ccc(-n2nccc2-c2nn(-c3cccc(S(C)(=O)=O)c3)ccc2=O)cc1 [Example 88]")
"not satisfied"
>>> qualitative_label("CCOc1cc(-n2nccc2-c2nn(-c3ccc(OC(F)(F)F)cc3)ccc2=O)ccn1 [Example 200]")
"satisfied"
>>> qualitative_label("O=c1ccn(-c2cccc(OC(F)(F)F)c2)nc1-c1ccnn1-c1cccc(Cl)c1 [Example 48]")
"satisfied"

Please tell me: is the compound O=C1CCC(c2ccc(-n3nccc3-c3nn(-c4cccc(OC(F)(F)F)c4)ccc3=O)cc2)=NN1 [Example 78] at or over 7 in terms of pIC50? not satisfied

hey, is pIC50 for this one >= 7? O=c1ccn(-c2ccc(OC(F)(F)F)cc2)nc1-c1ccnn1-c1ccnc2ccc(Cl)cc12 [Example 224] satisfied
